Tested on: COLO 205 colon
assay-notes: NCI tumour cell line growth inhibition, 48 h
measure: TGI

q: // query TGI value for entry CCOC(=O)c1ccc(NC(=O)Oc2ccc3c(C)cc(=O)oc3c2)cc1
a: > 100 µM

q: // query TGI value for entry Cc1ccc(-c2c(C#N)c(-c3ccc(C)cc3)n(NS(=O)(=O)c3ccccc3)c(=O)c2C#N)cc1
a: > 100 µM

q: // query TGI value for entry [N-]=[N+]=Nc1c([N+](=O)[O-])c(=O)n(-c2ccccc2)c2ccccc12
a: 42.3 µM

q: // query TGI value for entry O=C(O)CCCc1nc2c(n1Cc1ccccc1)C(=O)c1ccccc1C2=O
a: > 100 µM

q: // query TGI value for entry BrC1=C(Br)C2(SCCS2)[C@H]2C[C@@H]1c1ccccc12
a: > 100 µM

q: // query TGI value for entry O=c1[nH]nnc2c1sc1ncccc12
a: > 100 µM
